# key: entry, value: pIC50
Target: pseudo-kinase domain (JH2, amino-acids 536-812 with 3 surface mutations W659A, W777A, F794H) of human V617F mutant JAK2 (Homo sapiens, UniProt O60674, F794H/V617F/W659A/W777A)
Construct: pseudo-kinase domain (JH2, amino-acids 536-812 with 3 surface mutations W659A, W777A, F794H); His (C); Avi (biotinylated) (C)
Sequence (O60674 536-812 V617F/W659A/W777A/F794H): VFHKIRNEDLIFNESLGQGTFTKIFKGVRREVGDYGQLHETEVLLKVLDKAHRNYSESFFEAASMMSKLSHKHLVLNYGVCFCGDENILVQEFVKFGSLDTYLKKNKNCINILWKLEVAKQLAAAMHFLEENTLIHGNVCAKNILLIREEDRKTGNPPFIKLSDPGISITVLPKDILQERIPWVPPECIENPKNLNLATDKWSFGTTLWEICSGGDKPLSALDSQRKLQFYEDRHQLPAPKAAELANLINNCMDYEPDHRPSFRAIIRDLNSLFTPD
Assay: JAK2 LanthaScreen JH2-V617F Binding Assay
Details: JAK2 JH2-V617F (0.26 nM), 50 nM Fluorescent JAK2-JH2 Tracer, 1 hour at 25° C.; read-out: JH2 BIND V617F
pIC50: −log10 of the molar value.

compound=CC(C)n1c(=O)n(C)c2cnc3[nH]c(-c4ccc(CN5CCC(S(C)(=O)=O)CC5)cc4)c(-c4ccc(C5(C#N)CC5)cc4)c3c21 meas_value="≥ 8.00"
compound=CCc1[nH]c2ncc3c(c2c1-c1ccc2c(cnn2C)c1)n(C1CCCC1)c(=O)n3C meas_value="6.30 to 7.00"
compound=CC(C)n1c(=O)n(C)c2cnc3[nH]c(-c4cnn(CC(C)(C)O)c4)c(-c4cnc(N5CCOCC5)s4)c3c21 meas_value="7.00 to 8.00"

Recorded pIC50 (compound CC(C)n1c(=O)n(C)c2cnc3[nH]c(-c4cnn(CC(C)(C)O)c4)c(-c4ccc5c(c4)CCC5O)c3c21 (stereo not shown) ): 7.00 to 8.00

Recorded pIC50 (compound "Cn1c(=O)n(C2CCCC2)c2c3c(-c4cc5cnccc5s4)c(-c4cnn(CC(F)F)c4)[nH]c3ncc21" ): ≥ 8.00

Recorded pIC50 (compound Cn1ncc2cc(-c3c(C(O)C4CC4)[nH]c4ncc5c(c34)n(C3CCOCC3)c(=O)n5C)ccc21 (stereo not shown) ): 7.00 to 8.00

Recorded pIC50 (compound "CCOC(=O)N[C@H]1C[C@@H](n2c(=O)n(C)c3cnc4[nH]c(-c5cnn(C)c5)c(-c5ccc(C#N)cc5)c4c32)C1" ): ≥ 8.00
